# System: Klebsiella aerogenes DSM 30053
# assay.method.text: fold change of Putrescine concentration vs plate DMSO controls (fold change (ratio)); higher = more amine produced, active = hit call of the paper (significant change in both replicates, either direction)
# details: incubation time: 27 h, anaerobic, 37 °C
Where a name gives a salt, the structure may show the parent alone.
Binary classification by fold change of Putrescine concentration, with 1 as an inclusive lower bound for Fulfilled; all other cases are Not fulfilled.

> print(dat)
                                   compound    class.label
1  CC(C)NCC(O)c1ccc(NS(C)(=O)=O)cc1 (centres undefined) [Sotalol hydrochloride] (20 µM)      Fulfilled
2  COc1cc(Cc2cnc(N)nc2N)cc(OC)c1OC [Trimethoprim] (20 µM)      Fulfilled
3  O=[N+]([O-])c1ccc(O)c2ncccc12 [Nitroxoline] (20 µM)  Not fulfilled
